// provenance: paper PMC8873925

Biological target: T1, CSTF2 RRM D90I (Homo sapiens, UniProt P33240 1-107, D90I)
T1 sequence: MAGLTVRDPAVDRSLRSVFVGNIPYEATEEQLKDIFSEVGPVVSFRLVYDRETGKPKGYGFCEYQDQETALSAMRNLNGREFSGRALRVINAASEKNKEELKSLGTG
Assay: ITC
QUANTITY KIND: pKd
Worth noting: pKd values are minus log10 of concentrations stated in mol/L.

Reported pKd of AUUUUAUGUUUCAGGU (ssRNA) [SVL RNA] : 5.90
